Task for the reader: assign each of the following binders its reported pKd.
biological target: equine FcRn (large alpha subunit p51) / equine beta-2-microglobulin complex, biotinylated (equine) (UniProt P30441); assay: SPR (Biacore), pH 6
Reminder that pKd is minus the log10 of a molar concentration.

Measured pKd, equine IgG1 T286Q (antibody, part only; not given: variable domains, not shown: another chain or arm of the molecule) constant: ASTTAPKVFALAPGCGTTSDSTVALGCLVSGYFPEPVKVSWNSGSLTSGVHTFPSVLQSSGFYSLSSMVTVPASTWTSETYICNVVHAASNFKVDKRIEPIPDNHQKVCDMSKCPKCPAPELLGGPSVFIFPPNPKDTLMITRTPEVTCVVVDVSQENPDVKFNWYMDGVEVRQATTRPKEEQFNSTYRVVSVLRIQHQDWLSGKEFKCKVNNQALPQPIERTITKTKGRSQEPQVYVLAPHPDELSKSKVSVTCLVKDFYPPEINIEWQSNGQPELETKYSTTQAQQDSDGSYFLYSKLSVDRNRWQQGTTFTCGVMHEALHNHYTQKNVSKNPGK : 7.77

Measured pKd, equine IgG1 G426P (antibody, part only; not given: variable domains, not shown: another chain or arm of the molecule) constant: ASTTAPKVFALAPGCGTTSDSTVALGCLVSGYFPEPVKVSWNSGSLTSGVHTFPSVLQSSGFYSLSSMVTVPASTWTSETYICNVVHAASNFKVDKRIEPIPDNHQKVCDMSKCPKCPAPELLGGPSVFIFPPNPKDTLMITRTPEVTCVVVDVSQENPDVKFNWYMDGVEVRTATTRPKEEQFNSTYRVVSVLRIQHQDWLSGKEFKCKVNNQALPQPIERTITKTKGRSQEPQVYVLAPHPDELSKSKVSVTCLVKDFYPPEINIEWQSNGQPELETKYSTTQAQQDSDGSYFLYSKLSVDRNRWQQGTTFTCPVMHEALHNHYTQKNVSKNPGK : 7.62
